Item-by-item account of melting point

CCOC(=O)c1nc2c(=O)[nH]c3cc(C(F)(F)F)ccc3n2c1C: > 250 °C
Cc1ncc(CO)c(C2NC(C(=O)O)C(C)(C)S2)c1O (stereo unspecified): 201 to 202 °C

Data request: melting point for CCOCC(=O)C1CCC2C3CCC4CC(O)CCC4(C)C3C(=O)CC12C (stereo unspecified) ?
Data returned: 129 to 131 °C

Data request: Next entry: Cc1cc2ncc(Nc3ccc(Cl)c(Cl)c3)nc2cc1C
Data returned: 229 °C

Data request: Request: CCOC(=O)COc1coc(C)cc1=O
Data returned: 95 to 98 °C

Data request: Now consider O=C(c1ccc(F)cc1)c1cccc(C(=O)c2ccc(F)cc2)c1 and answer again.
Data returned: 178 °C

# credit: a melting point compilation (Tetko et al.; mined from patent text by program, amines drawn as free bases though some values may be those of a salt)
